The values you see were collected from patent US7511077B2.

- system_under_test: rat brain N-type calcium channel subunits (α1B+α2δ+β1b cDNA subunits) (Rattus norvegicus)
- Construct: expressed in transfected cells; host or cells: HEK 293
- Sequence (Q02294 whole entry): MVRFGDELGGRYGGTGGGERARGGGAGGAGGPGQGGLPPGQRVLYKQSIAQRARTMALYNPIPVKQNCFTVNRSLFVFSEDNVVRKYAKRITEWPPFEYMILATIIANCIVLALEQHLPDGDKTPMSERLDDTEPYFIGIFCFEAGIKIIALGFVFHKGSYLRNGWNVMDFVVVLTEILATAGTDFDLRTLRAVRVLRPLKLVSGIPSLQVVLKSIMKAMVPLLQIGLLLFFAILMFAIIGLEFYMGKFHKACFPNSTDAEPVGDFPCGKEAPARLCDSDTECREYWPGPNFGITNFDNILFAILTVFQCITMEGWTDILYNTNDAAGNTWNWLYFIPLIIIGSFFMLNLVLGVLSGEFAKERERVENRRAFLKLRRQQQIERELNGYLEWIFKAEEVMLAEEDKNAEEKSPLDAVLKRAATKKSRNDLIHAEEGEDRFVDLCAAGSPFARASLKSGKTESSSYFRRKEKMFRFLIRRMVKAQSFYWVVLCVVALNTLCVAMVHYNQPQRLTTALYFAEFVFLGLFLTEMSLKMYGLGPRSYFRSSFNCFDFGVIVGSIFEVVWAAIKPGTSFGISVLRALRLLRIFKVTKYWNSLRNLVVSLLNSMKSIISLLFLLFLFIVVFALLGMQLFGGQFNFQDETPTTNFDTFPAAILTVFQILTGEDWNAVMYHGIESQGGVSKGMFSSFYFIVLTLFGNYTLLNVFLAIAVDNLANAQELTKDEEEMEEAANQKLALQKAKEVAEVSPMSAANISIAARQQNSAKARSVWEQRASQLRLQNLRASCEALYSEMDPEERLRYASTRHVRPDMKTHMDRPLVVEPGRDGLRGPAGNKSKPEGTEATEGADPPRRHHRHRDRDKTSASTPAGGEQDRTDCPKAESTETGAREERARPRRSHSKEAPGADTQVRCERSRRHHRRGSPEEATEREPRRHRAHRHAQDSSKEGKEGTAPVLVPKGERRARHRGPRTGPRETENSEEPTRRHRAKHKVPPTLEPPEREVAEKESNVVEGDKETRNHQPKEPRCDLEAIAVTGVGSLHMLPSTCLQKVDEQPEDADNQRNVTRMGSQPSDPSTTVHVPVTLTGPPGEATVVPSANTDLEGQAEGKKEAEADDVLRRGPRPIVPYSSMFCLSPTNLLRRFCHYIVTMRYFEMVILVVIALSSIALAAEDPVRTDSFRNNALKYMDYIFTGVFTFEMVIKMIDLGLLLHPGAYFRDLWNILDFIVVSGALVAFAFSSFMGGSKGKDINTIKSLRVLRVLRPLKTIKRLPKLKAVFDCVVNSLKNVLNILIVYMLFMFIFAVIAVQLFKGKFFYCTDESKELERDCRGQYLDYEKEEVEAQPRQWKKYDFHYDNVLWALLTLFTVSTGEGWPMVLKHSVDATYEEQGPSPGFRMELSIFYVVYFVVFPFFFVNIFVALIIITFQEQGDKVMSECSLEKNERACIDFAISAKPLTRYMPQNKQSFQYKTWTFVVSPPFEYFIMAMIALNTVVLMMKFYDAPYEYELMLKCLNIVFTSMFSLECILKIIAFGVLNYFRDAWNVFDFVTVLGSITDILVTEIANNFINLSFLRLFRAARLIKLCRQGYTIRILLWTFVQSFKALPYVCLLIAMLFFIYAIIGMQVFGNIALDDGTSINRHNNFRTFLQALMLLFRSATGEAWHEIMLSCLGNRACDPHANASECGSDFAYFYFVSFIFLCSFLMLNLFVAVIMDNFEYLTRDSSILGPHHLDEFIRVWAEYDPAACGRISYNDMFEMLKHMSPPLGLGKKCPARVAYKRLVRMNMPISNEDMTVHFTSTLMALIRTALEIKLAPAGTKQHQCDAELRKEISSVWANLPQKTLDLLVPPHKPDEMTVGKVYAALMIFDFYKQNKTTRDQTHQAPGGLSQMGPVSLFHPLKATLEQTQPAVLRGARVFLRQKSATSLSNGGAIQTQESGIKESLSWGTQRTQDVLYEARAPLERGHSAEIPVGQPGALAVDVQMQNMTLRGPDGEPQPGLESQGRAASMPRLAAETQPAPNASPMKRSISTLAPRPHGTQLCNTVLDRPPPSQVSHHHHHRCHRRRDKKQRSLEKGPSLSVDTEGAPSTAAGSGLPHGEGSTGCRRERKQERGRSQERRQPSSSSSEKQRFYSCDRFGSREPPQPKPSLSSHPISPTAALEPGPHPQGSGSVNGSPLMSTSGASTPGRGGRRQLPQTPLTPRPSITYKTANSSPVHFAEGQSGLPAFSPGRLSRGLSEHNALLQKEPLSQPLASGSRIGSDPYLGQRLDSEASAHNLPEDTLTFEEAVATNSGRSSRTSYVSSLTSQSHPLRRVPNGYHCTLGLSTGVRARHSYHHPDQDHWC
- assay_notes: N-type calcium channel block, whole cell patch clamp in HEK 293 cells
- Format: cell-based
- applied_conditions: pulse frequency 0.2 Hz (frequency dependent block); holding potential −80 mV to +10 mV; read-out: IC50 @ 0.2 Hz
measured_endpoint: IC50 (nM)

Guide cases for IC50, answers given:
mol_smiles	numeric_value
O=C(CCCCC(c1ccc(F)cc1)c1ccc(F)cc1)NC/C=C/CNC(=O)COc1ccc(Cl)cc1	15
O=C(CCCCC(c1ccc(F)cc1)c1ccc(F)cc1)NCC#CCNC(=O)c1ccc(Cl)cc1	360
O=C(CCCCC(c1ccc(F)cc1)c1ccc(F)cc1)NC/C=C\CNC(=O)c1cc(C(F)(F)F)cc(C(F)(F)F)c1	46

1: COc1cc(C(=O)NC/C=C/CNC(=O)CCCCC(c2ccc(F)cc2)c2ccc(F)cc2)cc(OC)c1OC
2: O=C(CCCCC(c1ccc(F)cc1)c1ccc(F)cc1)NC/C=C\CNC(=O)c1ccc(F)cc1
3: O=C(CCCCC(c1ccc(F)cc1)c1ccc(F)cc1)NCC#CCNC(=O)c1ccc(F)cc1
Task: Task for the reader: rank each entry by its IC50, from the minimum upward. Kindly provide the labels arranged according to the requested ordering.
Result: 2, 1, 3
(2: 112 nM, 1: 196 nM, 3: 290 nM)

a: O=C(CC(c1ccccc1)c1ccccc1)NC/C=C/CN(Cc1ccncc1)Cc1ccncc1
b: O=C(CCCCC(c1ccc(F)cc1)c1ccc(F)cc1)NC/C=C/CNC(=O)c1cc(C(F)(F)F)cc(C(F)(F)F)c1
Task: When a and b are compared, which has the higher number for IC50? // return label of chosen record
Result: a
(a: 278 nM, b: 127 nM)

I: CC(C)c1ccc(C(=O)NC/C=C/CNC(=O)CCCCC(c2ccc(F)cc2)c2ccc(F)cc2)cc1
II: CC(C)(C)c1ccc(C(=O)NC/C=C/CNC(=O)CCCCC(c2ccc(F)cc2)c2ccc(F)cc2)cc1
Task: When I and II are compared, which has the higher number for IC50? // return label of chosen record
Result: II

P: CC(C)(C)c1cc(C(=O)NC/C=C/CNC(=O)CCCCC(c2ccc(F)cc2)c2ccc(F)cc2)cc(C(C)(C)C)c1O
Q: O=C(CCCCC(c1ccc(F)cc1)c1ccc(F)cc1)NCCCCNC(=O)COc1ccc(Cl)cc1
Task: # min-compare on IC50 between P and Q // return label of chosen record
Result: Q

---

- system_under_test: human α1G T-type channels (Homo sapiens)
- Construct: expressed in transfected cells; host or cells: HEK cell lines
- Sequence (O43497 whole entry): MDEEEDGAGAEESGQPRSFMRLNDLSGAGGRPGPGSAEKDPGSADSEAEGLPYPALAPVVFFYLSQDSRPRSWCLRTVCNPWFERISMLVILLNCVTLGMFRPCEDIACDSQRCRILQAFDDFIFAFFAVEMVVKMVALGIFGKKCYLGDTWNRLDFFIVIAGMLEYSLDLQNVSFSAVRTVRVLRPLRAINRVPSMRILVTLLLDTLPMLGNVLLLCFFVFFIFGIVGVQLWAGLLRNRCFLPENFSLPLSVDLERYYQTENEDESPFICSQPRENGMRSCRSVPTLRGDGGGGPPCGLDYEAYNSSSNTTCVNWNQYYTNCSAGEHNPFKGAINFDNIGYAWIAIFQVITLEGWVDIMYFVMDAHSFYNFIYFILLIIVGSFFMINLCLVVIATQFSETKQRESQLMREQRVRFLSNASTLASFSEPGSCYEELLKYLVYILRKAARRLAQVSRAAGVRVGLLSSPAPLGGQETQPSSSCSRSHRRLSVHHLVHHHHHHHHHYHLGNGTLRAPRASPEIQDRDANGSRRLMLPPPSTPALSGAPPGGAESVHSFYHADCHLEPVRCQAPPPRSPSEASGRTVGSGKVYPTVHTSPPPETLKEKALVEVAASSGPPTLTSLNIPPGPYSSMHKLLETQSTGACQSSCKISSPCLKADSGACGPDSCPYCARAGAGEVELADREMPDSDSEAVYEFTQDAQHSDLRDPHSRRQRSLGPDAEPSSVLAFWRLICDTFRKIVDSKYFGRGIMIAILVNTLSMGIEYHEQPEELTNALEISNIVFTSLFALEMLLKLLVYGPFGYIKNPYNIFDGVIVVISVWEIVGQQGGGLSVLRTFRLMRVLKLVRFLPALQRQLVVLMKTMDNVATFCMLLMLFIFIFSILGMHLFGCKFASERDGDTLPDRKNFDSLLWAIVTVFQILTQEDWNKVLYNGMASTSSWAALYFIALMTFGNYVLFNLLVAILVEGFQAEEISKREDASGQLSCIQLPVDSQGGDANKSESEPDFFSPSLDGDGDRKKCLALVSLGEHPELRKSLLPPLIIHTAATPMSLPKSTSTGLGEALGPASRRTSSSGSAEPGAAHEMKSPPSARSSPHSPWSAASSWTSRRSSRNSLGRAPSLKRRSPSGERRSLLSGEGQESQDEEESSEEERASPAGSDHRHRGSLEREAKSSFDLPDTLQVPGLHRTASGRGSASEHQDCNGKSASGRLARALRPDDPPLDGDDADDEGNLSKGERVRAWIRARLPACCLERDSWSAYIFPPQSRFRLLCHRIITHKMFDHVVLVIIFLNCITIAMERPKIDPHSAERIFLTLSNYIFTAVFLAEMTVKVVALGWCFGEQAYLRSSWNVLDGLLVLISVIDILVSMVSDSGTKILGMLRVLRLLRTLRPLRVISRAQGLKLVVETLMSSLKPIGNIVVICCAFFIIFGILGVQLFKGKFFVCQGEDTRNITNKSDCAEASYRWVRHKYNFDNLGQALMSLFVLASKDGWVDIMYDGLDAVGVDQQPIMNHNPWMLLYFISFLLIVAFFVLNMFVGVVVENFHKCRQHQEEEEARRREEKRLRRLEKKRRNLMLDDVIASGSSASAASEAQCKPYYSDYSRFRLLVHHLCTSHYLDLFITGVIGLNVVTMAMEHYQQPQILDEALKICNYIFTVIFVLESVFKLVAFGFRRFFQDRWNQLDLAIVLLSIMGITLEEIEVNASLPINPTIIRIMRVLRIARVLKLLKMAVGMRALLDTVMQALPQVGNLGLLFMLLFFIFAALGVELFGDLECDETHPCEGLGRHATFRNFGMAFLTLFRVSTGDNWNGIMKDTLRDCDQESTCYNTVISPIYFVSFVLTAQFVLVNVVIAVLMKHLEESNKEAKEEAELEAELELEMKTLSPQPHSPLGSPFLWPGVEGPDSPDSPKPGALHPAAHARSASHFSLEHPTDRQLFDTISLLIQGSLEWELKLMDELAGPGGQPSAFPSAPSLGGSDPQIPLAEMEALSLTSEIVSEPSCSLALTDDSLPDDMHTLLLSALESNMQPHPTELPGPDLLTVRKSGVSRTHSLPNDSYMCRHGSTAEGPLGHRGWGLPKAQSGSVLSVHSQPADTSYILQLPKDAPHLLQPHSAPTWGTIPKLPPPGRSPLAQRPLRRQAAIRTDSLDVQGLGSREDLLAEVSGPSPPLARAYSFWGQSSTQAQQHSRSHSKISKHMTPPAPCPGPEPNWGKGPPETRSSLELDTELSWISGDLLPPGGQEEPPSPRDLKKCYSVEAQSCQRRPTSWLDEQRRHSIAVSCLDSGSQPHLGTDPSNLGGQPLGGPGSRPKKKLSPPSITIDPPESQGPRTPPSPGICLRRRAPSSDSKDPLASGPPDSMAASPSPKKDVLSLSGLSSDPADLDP
- assay_notes: T-type calcium channel block, patch clamp in HEK cell lines
- Type: cell-based
- applied_conditions: −80 mV (inactivation protocol, voltage-dependent block); read-out: IC50 @ −80 mV
pIC50: −log10 of the molar value.
measured_endpoint: pIC50

mol_smiles	pIC50
O=C(CCCCC(c1ccc(F)cc1)c1ccc(F)cc1)NC/C=C/CNC(=O)c1cc(C(F)(F)F)cc(C(F)(F)F)c1	7.68

a: Cc1ccc(C(=O)NCC#CCNC(=O)CCCCC(c2ccc(F)cc2)c2ccc(F)cc2)cc1
b: O=C(CC(c1ccccc1)c1ccccc1)NCC#CCN(Cc1ccccn1)Cc1ccccn1
c: O=C(CC(c1ccccc1)c1ccccc1)NCC#CCN(Cc1cccnc1)Cc1cccnc1
Task: Task for the reader: rank each entry by its pIC50, from the minimum upward. Kindly provide the labels arranged according to the requested ordering.
Result: b, a, c
